- experimental.protocol: Pharmacokinetic studies using rats, i.v. bolus injection
- Format: in vivo
- applied.conditions: rat, iv, plasma, after i.v. bolus injection
Numbered stars: 1 amine (or outer) side, 2 acyl side, 3 side chain; on linkers, the order of the positions; unused ones are H or OH. Bridge positions count the residues as written; N and C are the ends. Square brackets hold non-standard residues; d marks the D form. Peptide text beside a SMILES is read from it. Leu(3R-O(AcLeu(3R-OH))) = CC(=O)N[C@H](C(=O)O[C@H](C(C)C)[C@H](N)C(=O)O)[C@H](O)C(C)C; X1 = CO[C@H](C)C(C(=O)[*:2])N(C)[*:1]; dPhLac = O=C(O)[C@H](O)Cc1ccccc1; NMeA = CN[C@@H](C)C(=O)O; NMeDha = C=C(NC)C(=O)O
measured.property: half-life

Input: Query half-life for C=C1C(=O)N[C@@H](C)C(=O)N(C)[C@@H](C)C(=O)N[C@@H]([C@H](OC(=O)[C@@H](NC(C)=O)[C@H](O)C(C)C)C(C)C)C(=O)N(C)C([C@@H](C)OC)C(=O)O[C@H](C)[C@H](NC(C)=O)C(=O)O[C@H](Cc2ccccc2)C(=O)N1C (stereo partly drawn) [compound (I)] (Ac-T[dPhLac][NMeDha]A[NMeA][Leu(3R-O(AcLeu(3R-OH)))][X1]; ester 1-C)
Output: 3.7 min
